// provenance: ChEMBL document CHEMBL5550201

Test system: RS4-11
METHOD_NOTES: Antiproliferative activity against human RS4-11 cells with shp53 assessed as cell viability measured after 7 days by PMS-MTS assay
Format: functional, cell-based
MEASUREMENT_SETUP: RS4-11, 168 h
pIC50: −log10 of the molar value.
PROPERTY_MEASURED: pIC50

Here's what some known entries look like.
{"SMILES_NOTATION": "Cc1ncsc1-c1ccc([C@H](C)NC(=O)[C@@H]2C[C@H](O)CN2C(=O)[C@@H](c2cc(N3CCN(Cc4ccc(-c5c6ncn(CC7(O)CCN(C(=O)C[C@@H](C)c8ccccc8)CC7)c(=O)c6nn5C)cc4)CC3)no2)C(C)C)cc1", "pIC50": "< 4.70"}
{"SMILES_NOTATION": "Cc1ncsc1-c1ccc([C@H](C)NC(=O)[C@@H]2C[C@@H](O)CN2C(=O)[C@@H](c2cc(N3CCN(Cc4ccc(-c5c6ncn(CC7(O)CCN(C(=O)C[C@@H](C)c8ccccc8)CC7)c(=O)c6nn5C)cc4)CC3)no2)C(C)C)cc1", "pIC50": "< 4.70"}

Then this molecule:
Problem: So what's the measured pIC50 for this one? C[C@H](CC(=O)N1CCC(O)(Cn2cnc3c(-c4ccc(CN)cc4)n(C)nc3c2=O)CC1)c1ccccc1
Result: < 4.70
